Origin of the recorded values: patent US10532065B2

- Tested on: EJ-1 cells / γδ T cells
- experiment: TNF-α production from γδ T cells stimulated by compound-pretreated EJ-1 cells (indirect antitumor action, ELISA)
- Type: cell-based
- details: EJ-1 pretreated 4 hr with compound, 16 hr with γδ T cells, TNF-α ELISA; read-out: TNF-α50
Reported EC50 values for a set of molecules
quantity: EC50 (nM)

querysmiles=Cc1cnc(NCC(P(=O)(OCOC(=O)C(C)(C)C)OCOC(=O)C(C)(C)C)P(=O)(OCOC(=O)C(C)(C)C)OCOC(=O)C(C)(C)C)s1 quantity=EC50 qualifieroperator== recordednumber=63
querysmiles=CC(C)(C)C(=O)OCOP(=O)(OCOC(=O)C(C)(C)C)C(CNc1ncccc1O)P(=O)(OCOC(=O)C(C)(C)C)OCOC(=O)C(C)(C)C quantity=EC50 qualifieroperator== recordednumber=4600
querysmiles=CC(C)(C)C(=O)OCOP(=O)(OCOC(=O)C(C)(C)C)C(CNc1nccs1)P(=O)(OCOC(=O)C(C)(C)C)OCOC(=O)C(C)(C)C quantity=EC50 qualifieroperator== recordednumber=60
querysmiles=CC(C)(C)C(=O)OCOP(=O)(OCOC(=O)C(C)(C)C)C(CNc1cc(Br)ccn1)P(=O)(OCOC(=O)C(C)(C)C)OCOC(=O)C(C)(C)C quantity=EC50 qualifieroperator== recordednumber=6500
querysmiles=CC(C)(C)C(=O)OCOP(=O)(OCOC(=O)C(C)(C)C)C(CNc1ccc(C(F)(F)F)cn1)P(=O)(OCOC(=O)C(C)(C)C)OCOC(=O)C(C)(C)C quantity=EC50 qualifieroperator=> recordednumber=10000
querysmiles=CC(C)(C)C(=O)OCOP(=O)(OCOC(=O)C(C)(C)C)C(CNc1ccc(F)cn1)P(=O)(OCOC(=O)C(C)(C)C)OCOC(=O)C(C)(C)C quantity=EC50 qualifieroperator== recordednumber=69
querysmiles=CC(C)(C)C(=O)OCOP(=O)(OCOC(=O)C(C)(C)C)C(CNc1ncccc1-c1ccc(F)cc1)P(=O)(OCOC(=O)C(C)(C)C)OCOC(=O)C(C)(C)C quantity=EC50 qualifieroperator=> recordednumber=10000
querysmiles=Cc1ccc(NCC(P(=O)(OCOC(=O)C(C)(C)C)OCOC(=O)C(C)(C)C)P(=O)(OCOC(=O)C(C)(C)C)OCOC(=O)C(C)(C)C)nc1 quantity=EC50 qualifieroperator== recordednumber=480
querysmiles=CC(C)(C)C(=O)OCOP(=O)(OCOC(=O)C(C)(C)C)C(CNc1ccncn1)P(=O)(OCOC(=O)C(C)(C)C)OCOC(=O)C(C)(C)C quantity=EC50 qualifieroperator== recordednumber=62
querysmiles=Cc1ccnc(NCC(P(=O)(OCOC(=O)C(C)(C)C)OCOC(=O)C(C)(C)C)P(=O)(OCOC(=O)C(C)(C)C)OCOC(=O)C(C)(C)C)c1 quantity=EC50 qualifieroperator== recordednumber=5100
querysmiles=CN(CC(P(=O)(OCOC(=O)C(C)(C)C)OCOC(=O)C(C)(C)C)P(=O)(OCOC(=O)C(C)(C)C)OCOC(=O)C(C)(C)C)c1ccccn1 quantity=EC50 qualifieroperator== recordednumber=550
querysmiles=COc1ccc(-c2cccnc2NCC(P(=O)(OCOC(=O)C(C)(C)C)OCOC(=O)C(C)(C)C)P(=O)(OCOC(=O)C(C)(C)C)OCOC(=O)C(C)(C)C)cc1 quantity=EC50 qualifieroperator=> recordednumber=10000

----------
Reported pEC50 values for a set of compounds
- Tested on: EJ-1 cells / γδ T cells
- experiment: TNF-α production from γδ T cells stimulated by compound-pretreated EJ-1 cells (indirect antitumor action, ELISA)
- Assay type: cell-based
- details: EJ-1 pretreated 4 hr with compound, 16 hr with γδ T cells, TNF-α ELISA; read-out: TNF-α50
pEC50: −log10 of the molar value.
quantity: pEC50

querysmiles=CC(C)(C)C(=O)OCOP(=O)(OCOC(=O)C(C)(C)C)C(Cn1ccc2cccnc21)P(=O)(OCOC(=O)C(C)(C)C)OCOC(=O)C(C)(C)C targetofassay="EJ-1 cells / γδ T cells" qualifieroperator== recordednumber=5.80
querysmiles=CC(C)(C)C(=O)OCOP(=O)(OCOC(=O)C(C)(C)C)C(CNc1ncccc1Br)P(=O)(OCOC(=O)C(C)(C)C)OCOC(=O)C(C)(C)C targetofassay="EJ-1 cells / γδ T cells" qualifieroperator== recordednumber=5.35
querysmiles=Cc1cccc(NCC(P(=O)(OCOC(=O)C(C)(C)C)OCOC(=O)C(C)(C)C)P(=O)(OCOC(=O)C(C)(C)C)OCOC(=O)C(C)(C)C)n1 targetofassay="EJ-1 cells / γδ T cells" qualifieroperator== recordednumber=5.43
querysmiles=CCCCCCCCc1cccnc1NCC(P(=O)(OCOC(=O)C(C)(C)C)OCOC(=O)C(C)(C)C)P(=O)(OCOC(=O)C(C)(C)C)OCOC(=O)C(C)(C)C targetofassay="EJ-1 cells / γδ T cells" qualifieroperator== recordednumber=5.47
querysmiles=CC(C)(C)C(=O)OCOP(=O)(OCOC(=O)C(C)(C)C)C(CNc1ncccn1)P(=O)(OCOC(=O)C(C)(C)C)OCOC(=O)C(C)(C)C targetofassay="EJ-1 cells / γδ T cells" qualifieroperator== recordednumber=7.10
querysmiles=CCCCCCCCc1ccc(NCC(P(=O)(OCOC(=O)C(C)(C)C)OCOC(=O)C(C)(C)C)P(=O)(OCOC(=O)C(C)(C)C)OCOC(=O)C(C)(C)C)nc1 targetofassay="EJ-1 cells / γδ T cells" qualifieroperator== recordednumber=5.32
querysmiles=CC(C)(C)C(=O)OCOP(=O)(OCOC(=O)C(C)(C)C)C(CNc1ccc2ccccc2n1)P(=O)(OCOC(=O)C(C)(C)C)OCOC(=O)C(C)(C)C targetofassay="EJ-1 cells / γδ T cells" qualifieroperator=< recordednumber=5.00
querysmiles=CC(C)(C)C(=O)OCOP(=O)(OCOC(=O)C(C)(C)C)C(CNc1cccc(Br)n1)P(=O)(OCOC(=O)C(C)(C)C)OCOC(=O)C(C)(C)C targetofassay="EJ-1 cells / γδ T cells" qualifieroperator=< recordednumber=5.00
querysmiles=CC(C)(C)C(=O)OCOP(=O)(OCOC(=O)C(C)(C)C)C(CNc1nncs1)P(=O)(OCOC(=O)C(C)(C)C)OCOC(=O)C(C)(C)C targetofassay="EJ-1 cells / γδ T cells" qualifieroperator== recordednumber=5.72
querysmiles=CC(C)(C)C(=O)OCOP(=O)(OCOC(=O)C(C)(C)C)C(CNc1ccon1)P(=O)(OCOC(=O)C(C)(C)C)OCOC(=O)C(C)(C)C targetofassay="EJ-1 cells / γδ T cells" qualifieroperator== recordednumber=5.10
querysmiles=CC(C)(C)C(=O)OCOP(=O)(OCOC(=O)C(C)(C)C)C(CNc1nc(-c2ccccc2)cs1)P(=O)(OCOC(=O)C(C)(C)C)OCOC(=O)C(C)(C)C targetofassay="EJ-1 cells / γδ T cells" qualifieroperator=< recordednumber=5.00

----------
- Test system: MKN1 cells / γδ T cells
- experiment: TNF-α production from γδ T cells stimulated by compound-pretreated MKN1 cells
- Assay type: cell-based
- details: Homo sapiens, MKN-1; MKN1, Gastric cancer; 4 hr pretreatment, 16 hr with γδ T cells; read-out: TNF-α50
- Protocol: Since the above-mentioned results of Experimental Example confirm that the activity of bisphosphonic acids becomes high by POM esterification in various tumor cells, the TNF-α production induction ability of more number of tumor cells was quantitatively studied. […] The content of TNF-α was calculated from the analytical curve of TNF-α. […]
quantity: EC50 (µM)

molecule="O=P(O)(O)C(CNc1nccs1)P(=O)(O)O [Compound 14, reference compound]" recordednumber=89

----------
Reported pEC50 values for a set of compounds
- Tested on: PEER cells / γδ T cells
- experiment: TNF-α production from γδ T cells stimulated by compound-pretreated PEER cells
- Assay type: cell-based
- details: T cell acute lymphocytic leukemia, 4 hr pretreatment, 16 hr with γδ T cells, read-out: TNF-α50
pEC50: −log10 of the molar value.
quantity: pEC50

compound="O=P(O)(O)C(CNc1nccs1)P(=O)(O)O [Compound 14, reference compound]" qualifieroperator=< recordednumber=4.00
compound=CC(C)(C)C(=O)OCOP(=O)(OCOC(=O)C(C)(C)C)C(CNc1nccs1)P(=O)(OCOC(=O)C(C)(C)C)OCOC(=O)C(C)(C)C qualifieroperator== recordednumber=7.08

----------
- Tested on: U937 cells
- experiment: U937 cell growth inhibition (direct antitumor action, CellTiterGlo)
- Assay type: cell-based
- details: U937 cell growth inhibition, 4 days culture
pIC50: −log10 of the molar value.
quantity: pIC50

querysmiles=CC(C)(C)C(=O)OCOP(=O)(OCOC(=O)C(C)(C)C)C(CNc1ccc2ccccc2n1)P(=O)(OCOC(=O)C(C)(C)C)OCOC(=O)C(C)(C)C recordednumber=5.18
querysmiles=CC(C)(C)C(=O)OCOP(=O)(OCOC(=O)C(C)(C)C)C(CNc1ccc(C(F)(F)F)cn1)P(=O)(OCOC(=O)C(C)(C)C)OCOC(=O)C(C)(C)C recordednumber=5.59
querysmiles=CN(CC(P(=O)(OCOC(=O)C(C)(C)C)OCOC(=O)C(C)(C)C)P(=O)(OCOC(=O)C(C)(C)C)OCOC(=O)C(C)(C)C)c1ccccn1 recordednumber=5.28
querysmiles=CC(C)(C)C(=O)OCOP(=O)(OCOC(=O)C(C)(C)C)C(CNc1ccnc(Br)c1)P(=O)(OCOC(=O)C(C)(C)C)OCOC(=O)C(C)(C)C recordednumber=5.18
querysmiles=CC(C)(C)C(=O)OCOP(=O)(OCOC(=O)C(C)(C)C)C(CNc1ccc(Br)cn1)P(=O)(OCOC(=O)C(C)(C)C)OCOC(=O)C(C)(C)C recordednumber=5.44
querysmiles=CCCCCCCCc1cccnc1NCC(P(=O)(OCOC(=O)C(C)(C)C)OCOC(=O)C(C)(C)C)P(=O)(OCOC(=O)C(C)(C)C)OCOC(=O)C(C)(C)C recordednumber=5.46
querysmiles=Cc1ccnc(NCC(P(=O)(OCOC(=O)C(C)(C)C)OCOC(=O)C(C)(C)C)P(=O)(OCOC(=O)C(C)(C)C)OCOC(=O)C(C)(C)C)c1 recordednumber=5.17
querysmiles=Cc1cc(NCC(P(=O)(OCOC(=O)C(C)(C)C)OCOC(=O)C(C)(C)C)P(=O)(OCOC(=O)C(C)(C)C)OCOC(=O)C(C)(C)C)no1 recordednumber=5.10
querysmiles=Cc1cccc(NCC(P(=O)(OCOC(=O)C(C)(C)C)OCOC(=O)C(C)(C)C)P(=O)(OCOC(=O)C(C)(C)C)OCOC(=O)C(C)(C)C)n1 recordednumber=5.16
querysmiles=Cc1csc(NCC(P(=O)(OCOC(=O)C(C)(C)C)OCOC(=O)C(C)(C)C)P(=O)(OCOC(=O)C(C)(C)C)OCOC(=O)C(C)(C)C)n1 recordednumber=5.30
querysmiles=CC(C)(C)C(=O)OCOP(=O)(OCOC(=O)C(C)(C)C)C(CNc1nc(-c2ccccc2)cs1)P(=O)(OCOC(=O)C(C)(C)C)OCOC(=O)C(C)(C)C recordednumber=5.96
querysmiles=CC(C)(C)C(=O)OCOP(=O)(OCOC(=O)C(C)(C)C)C(CNc1cccc(Br)n1)P(=O)(OCOC(=O)C(C)(C)C)OCOC(=O)C(C)(C)C recordednumber=5.21
